Target: UniProt:P08908
Sequence (P08908 1-422): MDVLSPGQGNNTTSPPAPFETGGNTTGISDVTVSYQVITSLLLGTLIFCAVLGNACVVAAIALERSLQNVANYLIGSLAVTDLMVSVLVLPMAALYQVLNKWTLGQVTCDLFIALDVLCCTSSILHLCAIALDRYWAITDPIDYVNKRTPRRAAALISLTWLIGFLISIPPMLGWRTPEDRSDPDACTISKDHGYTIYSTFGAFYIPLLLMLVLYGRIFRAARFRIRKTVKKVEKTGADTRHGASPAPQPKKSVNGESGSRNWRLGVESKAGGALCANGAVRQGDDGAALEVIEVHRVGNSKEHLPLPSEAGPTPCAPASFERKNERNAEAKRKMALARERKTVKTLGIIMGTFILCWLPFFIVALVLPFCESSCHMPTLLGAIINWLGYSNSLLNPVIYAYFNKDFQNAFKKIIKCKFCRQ
Experiment: cAMP RIA in human 5-HT1A receptor cell line
Settings: superscript b; reversal of agonist activity, CHO cells; read-out: c-AMP, (IC50)^b
Counter-ions that a name gives are not always drawn.
Listing: pIC50 of selected compounds
Convention used: pIC50 is expressed as -log10 of the molar concentration.

Use these answered entries as a reference point.
• Cc1ccc2c3c(ccc2n1)OC[C@H](CN[C@H]1CCc2c([nH]c4ccc(F)cc24)C1)O3 (single isomer, unassigned) [Example 48, dihydrochloride] = 6.78
• Cc1ccc2c3c(ccc2n1)OC[C@H](CNCC1CCc2c([nH]c4ccc(F)cc24)C1)O3 (some centres unmarked) = 7.82
• Cc1ccc2c3c(ccc2n1)OC[C@H](CNC[C@H]1CCc2[nH]c4ccc(C#N)cc4c2C1)O3.Cl.Cl [Example 14, dihydrochloride] = 7.10
• Cc1ccc2c3c(ccc2n1)OC[C@H](CNC[C@@H]1CCc2[nH]c4ccc(F)cc4c2C1)O3 = 6.84
• Cc1ccc2c3c(ccc2n1)OC[C@H](CNCC1CCc2[nH]c4cc(F)ccc4c2C1)O3 (some centres unmarked) = 7.65

Item: Cc1ccc2c3c(ccc2n1)OC[C@H](CNC[C@@H]1CCc2c(c4cc(F)ccc4n2C)C1)O3 | pIC50: 7.40

Lab note: measured pIC50 of Cc1ccc2c3c(ccc2n1)OC[C@H](CNCC1CCc2[nH]c4cccc(F)c4c2C1)O3.Cl.Cl (some centres unmarked) [Example 11, dihydrochloride] was 7.31

get_value(item= Cc1ccc2c3c(ccc2n1)OC[C@H](CNCC1CCc2[nH]c4ccc(F)cc4c2C1)O3 (mixture of isomers) , readout=pIC50) returns 8.14

---

Target: Human 5-HT1A Receptor (Homo sapiens, UniProt P08908)
Construct: expressed in transfected cells; host or cells: CHO cells
Assay: cAMP RIA in human 5-HT1A receptor cell line
Assay type: cell-based
Conditions: superscript c; forskolin stimulated cAMP, CHO cells; read-out: c-AMP, (Emax)^c
Method: Stably transfected CHO cells were grown in DMEM containing 10% heat inactivated FBS and non-essential amino acids. The cells were plated at a density of 10^6 cells per well in a 96 well plate and incubated for 2 days in a CO2 incubator. […] Compounds shown to have no agonist activities were further analyzed for ability to reverse agonist activity. […] In the initial screen, percent inhibition of forskolin stimulated cAMP was measured. […]
Counter-ions that a name gives are not always drawn.
Known Emax of a selection of compounds

Examples with answers:
* Cc1ccc2c3c(ccc2n1)OC[C@H](CN(C)C[C@H]1CCc2c(c4cc(F)ccc4n2C)C1)O3 [Example 68, monohydrochloride monohydrate] | 34.8%
* Cc1ccc2c3c(ccc2n1)OC[C@H](CN[C@H]1CCc2c([nH]c4ccccc24)C1)O3 (single isomer, unassigned) [Example 45, dihydrochloride] | 59%

Value of measured Emax for the entry Cc1ccc2c3c(ccc2n1)OC[C@H](CN(CC1CCc2c(c4cc(F)ccc4n2C)C1)C1CCCC1)O3 (some centres unmarked) [Example 66, monohydrochloride monohydrate] : 67.5%

Emax in this record for CCC(C)N(C[C@@H]1CCc2[nH]c3ccc(F)cc3c2C1)C[C@H]1COc2ccc3nc(C)ccc3c2O1 (some centres unmarked) [Example 58, monohydrochloride monohydrate] : 22%

Emax reading for Cc1ccc2c3c(ccc2n1)OC[C@H](CN(C)C[C@@H]1CCc2c(c4cc(F)ccc4n2C)C1)O3 [Example 69, monohydrochloride monohydrate] : 63%

---

Where a name gives a salt, the structure may show the parent alone.
Reported values: pKi for serotonin transporter (Rattus norvegicus), one per item.
Kindly note that pKi refers to -log10 of the concentration in mol/L and answer with the value alone.

Field: example entries. Status: answers known.
* Cc1ccc2c3c(ccc2n1)OC[C@H](CNCC[C@H]1CCc2[nH]c4ccc(F)cc4c2C1)O3 (single isomer, unassigned) [Example 42, dihydrochloride] | 7.24
* Cc1ccc2c3c(ccc2n1)OC[C@H](CNCC[C@@H]1CCc2[nH]c4ccc(F)cc4c2C1)O3 (single isomer, unassigned) [Example 41, dihydrochloride] | 8.02

We next turn to a different compound, shown below.
The recorded pKi with serotonin transporter (Rattus norvegicus) for CCCN(C[C@@H]1CCc2[nH]c3ccc(F)cc3c2C1)C[C@H]1COc2ccc3nc(C)ccc3c2O1 [Example 54, dihydrochloride dihydrate] was 7.02

---

Target protein (sequence): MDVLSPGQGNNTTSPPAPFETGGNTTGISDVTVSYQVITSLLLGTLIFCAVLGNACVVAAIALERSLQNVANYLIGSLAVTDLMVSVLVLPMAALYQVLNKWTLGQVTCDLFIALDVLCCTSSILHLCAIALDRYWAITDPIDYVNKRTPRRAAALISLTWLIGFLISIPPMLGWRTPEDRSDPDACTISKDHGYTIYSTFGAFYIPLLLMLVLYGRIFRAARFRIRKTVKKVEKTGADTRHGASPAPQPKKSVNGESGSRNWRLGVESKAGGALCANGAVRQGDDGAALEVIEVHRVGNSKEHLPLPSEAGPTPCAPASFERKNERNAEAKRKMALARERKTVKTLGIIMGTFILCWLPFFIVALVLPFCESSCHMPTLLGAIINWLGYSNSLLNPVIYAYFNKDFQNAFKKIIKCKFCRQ
Counter-ions that a name gives are not always drawn.
Metric Name: Ki (nM)
API: value field is a number in nM; no unit string.

• Cc1ccc2c3c(ccc2n1)OC[C@H](CN(C)C[C@@H]1CCc2c(c4cc(F)ccc4n2C)C1)O3 [Example 69, monohydrochloride monohydrate] = 1590

What the record says about Cc1ccc2c3c(ccc2n1)OC[C@H](CNCC[C@@H]1CCc2[nH]c4ccc(F)cc4c2C1)O3 (single isomer, unassigned) [Example 41, dihydrochloride] : Ki is 242

// sample CCN(CC1CCc2[nH]c3ccc(F)cc3c2C1)C[C@H]1COc2ccc3nc(C)ccc3c2O1 (stereo partly drawn) [Example 50, dihydrochloride dihydrate] , its Ki was 226

---

Target: serotonin transporter (Rattus norvegicus)
Sequence (P31652 whole entry): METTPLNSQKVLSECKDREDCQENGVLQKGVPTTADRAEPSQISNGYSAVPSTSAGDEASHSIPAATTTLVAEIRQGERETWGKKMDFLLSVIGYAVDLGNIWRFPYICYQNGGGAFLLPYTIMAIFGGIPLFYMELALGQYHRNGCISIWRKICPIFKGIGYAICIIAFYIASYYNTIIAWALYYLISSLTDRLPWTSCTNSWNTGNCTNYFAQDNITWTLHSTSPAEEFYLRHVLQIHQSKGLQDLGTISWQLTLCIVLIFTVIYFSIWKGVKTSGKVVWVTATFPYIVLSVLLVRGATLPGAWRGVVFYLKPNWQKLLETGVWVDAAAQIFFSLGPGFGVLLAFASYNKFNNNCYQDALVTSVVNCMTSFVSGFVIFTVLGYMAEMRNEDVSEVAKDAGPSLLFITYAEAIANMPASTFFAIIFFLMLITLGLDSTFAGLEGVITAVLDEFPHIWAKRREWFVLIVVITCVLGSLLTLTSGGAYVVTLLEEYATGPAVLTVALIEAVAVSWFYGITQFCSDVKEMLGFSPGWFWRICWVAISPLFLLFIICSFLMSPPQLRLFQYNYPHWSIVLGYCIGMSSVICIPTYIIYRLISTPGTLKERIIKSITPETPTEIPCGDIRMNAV
Where a name gives a salt, the structure may show the parent alone.
Metric Name: pKi
The scale used: pKi is minus the common logarithm of the concentration in molar units.

• Cc1ccc2c3c(ccc2n1)OC[C@H](CN[C@H]1CCc2c([nH]c4ccc(F)cc24)C1)O3 (single isomer, unassigned) [Example 48, dihydrochloride] = 7.33
• Cc1ccc2c3c(ccc2n1)OC[C@H](CN(CC1CCc2[nH]c4ccc(F)cc4c2C1)C1CCC1)O3 (stereo partly drawn) [Example 53, dihydrochloride dihydrate] = 6.30

Please turn your attention to the following entry.
Sure, the documented pKi for Cc1ccc2c3c(ccc2n1)OC[C@H](CNCCC1CCc2[nH]c4ccc(F)cc4c2C1)O3 (mixture of isomers) [Example 40, dihydrochloride] is 7.32

---

Target: Human 5-HT1A Receptor (Homo sapiens)
Construct: expressed in transfected cells; host or cells: CHO cells
Sequence (P08908 1-422): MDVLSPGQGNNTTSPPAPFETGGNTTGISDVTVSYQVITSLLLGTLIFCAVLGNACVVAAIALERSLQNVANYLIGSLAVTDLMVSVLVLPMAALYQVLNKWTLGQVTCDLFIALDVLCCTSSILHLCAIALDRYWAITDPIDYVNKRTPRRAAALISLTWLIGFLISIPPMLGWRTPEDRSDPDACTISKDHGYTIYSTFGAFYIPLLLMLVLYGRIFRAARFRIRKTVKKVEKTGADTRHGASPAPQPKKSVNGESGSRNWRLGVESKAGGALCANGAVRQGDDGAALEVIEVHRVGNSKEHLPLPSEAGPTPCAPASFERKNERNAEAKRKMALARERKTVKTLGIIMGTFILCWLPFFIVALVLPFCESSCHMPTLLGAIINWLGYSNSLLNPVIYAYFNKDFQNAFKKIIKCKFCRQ
Experiment: cAMP RIA in human 5-HT1A receptor cell line
Format: cell-based
Settings: superscript b; reversal of agonist activity, CHO cells; read-out: c-AMP, (IC50)^b
Where a name gives a salt, the structure may show the parent alone.
Measured pIC50, listed per entry for reference.
Just the number, please; pIC50 means minus log10 of the concentration in mol/L.

Here are 5 compounds together with their reported answers.
* CCN(CC1CCc2[nH]c3ccc(F)cc3c2C1)C[C@H]1COc2ccc3nc(C)ccc3c2O1 (stereo partly drawn) [Example 50, dihydrochloride dihydrate] | 6.86
* Cc1ccc2c3c(ccc2n1)OC[C@H](CNC[C@H]1CCc2[nH]c4c(F)cc(F)cc4c2C1)O3.Cl.Cl [Example 10, dihydrochloride] | 6.60
* Cc1ccc2c3c(ccc2n1)OC[C@H](CNC[C@@H]1CCc2[nH]c4ccc(C#N)cc4c2C1)O3.Cl.Cl [Example 15, dihydrochloride] | 6.05
* Cc1ccc2c3c(ccc2n1)OC[C@H](CNCC1CCc2sc4ccccc4c2C1)O3 (single isomer, unassigned) [32 diastereomers 1] | 7.17
* Cc1ccc2c3c(ccc2n1)OC[C@H](CNC[C@@H]1CCc2[nH]c4c(F)cc(F)cc4c2C1)O3.Cl.Cl [Example 9, dihydrochloride] | 6.98

Proceeding to the next compound to report its pIC50.
Recorded result, Cc1ccc2c3c(ccc2n1)OC[C@H](CNC[C@H]1CCc2[nH]c4ccc(F)cc4c2C1)O3 , pIC50: 7.10

Cited source for all entries: patent US7297704B2
